- target.or.system: glucocerebrosidase (Gcase) (Homo sapiens)
- Sequence (P04062 40-536): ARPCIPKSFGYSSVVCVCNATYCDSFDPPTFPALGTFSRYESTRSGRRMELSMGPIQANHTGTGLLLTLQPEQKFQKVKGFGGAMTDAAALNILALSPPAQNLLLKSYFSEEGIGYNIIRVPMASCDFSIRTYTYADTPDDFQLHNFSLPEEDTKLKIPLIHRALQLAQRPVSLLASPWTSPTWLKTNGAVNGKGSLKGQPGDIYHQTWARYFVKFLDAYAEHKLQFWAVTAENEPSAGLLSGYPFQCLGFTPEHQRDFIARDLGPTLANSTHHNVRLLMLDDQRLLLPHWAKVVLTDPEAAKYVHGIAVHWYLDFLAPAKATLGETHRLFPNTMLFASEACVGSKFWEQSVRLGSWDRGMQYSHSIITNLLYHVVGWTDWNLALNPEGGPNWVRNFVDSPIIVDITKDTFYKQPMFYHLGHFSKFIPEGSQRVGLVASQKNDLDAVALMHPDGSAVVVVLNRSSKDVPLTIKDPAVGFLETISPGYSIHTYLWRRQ
- procedure.summary: Glucocerebrosidase (Gcase) activation assay, 4-methylumbelliferyl-beta-D-glucopyranoside substrate, with saposin C
- Type: biochemical
- experimental.setup: test compound at 0.1 μM; read-out: Percent Gcase Activation, 0.1 μM Test Compound
result.type: activation at 0.1 µM

molecule: Cc1cc(-c2ccccc2CC#N)nc2c(C(=O)NC(C3CC3)C(F)(F)F)ncn12 (stereo not drawn) [IV-40]
target.or.system: glucocerebrosidase (Gcase) (Homo sapiens)
val: < 10%
//
molecule: Cc1sc(C#N)cc1-c1cc(C)n2cnc(C(=O)NC(C3CC3)C(F)(F)F)c2n1 (stereo not drawn) [IV-95]
target.or.system: glucocerebrosidase (Gcase) (Homo sapiens)
val: > 20%
//
molecule: COc1cc(F)cc(-c2cc(C)n3cnc(C(=O)NC(C)C(F)(F)F)c3n2)c1 (stereo not drawn) [IV-57]
target.or.system: glucocerebrosidase (Gcase) (Homo sapiens)
val: > 20%
//
molecule: Cc1cc(-c2cccc(F)c2C#N)nc2c(C(=O)NC(C3CC3)C(F)(F)F)ncn12 (stereo not drawn) [IV-38]
target.or.system: glucocerebrosidase (Gcase) (Homo sapiens)
val: > 20%
//
molecule: Cc1cc(-c2occc2C#N)nc2c(C(=O)NC(C3CC3)C(F)(F)F)ncn12 (stereo not drawn) [IV-82]
target.or.system: glucocerebrosidase (Gcase) (Homo sapiens)
val: > 20%

Return the recorded activation at 0.1 µM value; entry: C#CC(C)(C)NC(=O)c1ncn2c(C)cc(-c3cccc4nccn34)nc12 [IV-24]
< 10%

Return the recorded activation at 0.1 µM value; entry: Cc1cc(-c2cnsc2)nc2c(C(=O)N[C@@H](C3CC3)C(F)(F)F)ncn12 [IV-53]
10 to 20%

Return the recorded activation at 0.1 µM value; entry: Cc1cc(-c2nccs2)nc2c(C(=O)NC(C3CC3)C(F)(F)F)ncn12 (stereo not drawn) [IV-50]
10 to 20%

Return the recorded activation at 0.1 µM value; entry: Cc1cc(C)n2cnc(C(=O)N[C@H]3[C@@H]4CC[C@H]3C[C@@H](OC(C)(C)C)C4)c2n1 [IV-10]
> 20%

Return the recorded activation at 0.1 µM value; entry: Cc1cc(-c2cnsc2)nc2c(C(=O)NC(C3CC3)C(F)(F)F)ncn12 (stereo not drawn) [IV-51]
> 20%
